- Protocol notes: log P determination by HPLC on reversed-phase column (EEC Directive 79/831 Annexe V.A8)
- Format: physicochemical
- Condition parameters: reversed-phase HPLC column (C 18), pH 2.3, C 18, 43° C., preparation examples
Quantity measured: chromatographic logP

# Compound, Quantity measured, Readout number
measured = [
    ("CC(=O)Nc1ccccc1C(C)CC(C)C (stereo not drawn) [III-1, N-[2-(1,3-dimethylbutyl)phenyl]acetamide]", "chromatographic logP", 2.65),
    ("CC(=O)N(C(=O)c1c(C(F)(F)F)nn(C)c1F)c1ccccc1C(C)CC(C)(C)C (stereo not drawn)", "chromatographic logP", 4.63),
    ("CCOC(=O)C(=O)N(C(=O)c1c(C)nn(C)c1F)c1ccccc1C(C)CC(C)(C)C (stereo not drawn)", "chromatographic logP", 4.4),
]
